These entries and their values trace back to patent US10407467B2.

system: Acinetobacter baumannii; assay: MIC, compound in combination with a second agent (broth microdilution); type: cell-based; conditions: 1:1 (wt:wt) combination with Rifampicin; MIC = total drug concentration; strain CCUG57249
Structures can show the parent of a compound that is named as a salt. Numbered stars: 1 amine (or outer) side, 2 acyl side, 3 side chain; on linkers, the order of the positions; unused ones are H or OH. Bridge positions count the residues as written; N and C are the ends. Square brackets hold non-standard residues; d marks the D form. Peptide text beside a SMILES is read from it. * marks the point of attachment. ξ: configuration not given here. Thr(3ξ) = CC(O)[C@H](N)C(=O)O; X11 = O=C(C(O)c1cccc(Br)c1)*; NH(2-ClPh) = Clc1ccccc1N*; Dab = NCC[C@H](N)C(=O)O; CO = O=C([*:1])[*:2]; Ahx = NCCCCCC(=O)O
Measured endpoint: MIC A. baumannii CCUG57249

| Compound | Value measured |
| --- | --- |
| CC(C)C[C@@H]1NC(=O)[C@@H](Cc2ccccc2)NC(=O)[C@H](CCN)NC(=O)[C@@H](NC(=O)[C@H](CCN)NC(=O)[C@@H](NC(=O)C(O)c2cccc(Br)c2)C(C)O)CCNC(=O)[C@H](C(C)O)NC(=O)[C@H](CCN)NC(=O)[C@H](CCN)NC1=O (stereo partly drawn) [Example 18] (X11-[Thr(3ξ)][Dab][Dab][Dab][dF]L[Dab][Dab][Thr(3ξ)]; lactam 3-C) | ≤0.06 micrograms/mL |
| CC(C)C[C@@H]1NC(=O)[C@@H](Cc2ccccc2)NC(=O)[C@H](CCN)NC(=O)[C@@H](NC(=O)[C@H](CCN)NC(=O)[C@@H](NC(=O)CCCCCN)C(C)O)CCNC(=O)[C@H](C(C)O)NC(=O)[C@H](CCN)NC(=O)[C@H](CCN)NC1=O (stereo partly drawn) [Example 2, 6-Aminohexanoyl polymyxin B nonapeptide] (H-[Ahx][Thr(3ξ)][Dab][Dab][Dab][dF]L[Dab][Dab][Thr(3ξ)]; lactam 4-C) | ≤0.06 micrograms/mL |
| CC(C)C[C@@H]1NC(=O)[C@@H](Cc2ccccc2)NC(=O)[C@H](CCN)NC(=O)[C@@H](NC(=O)[C@H](CCN)NC(=O)[C@@H](NC(=O)[C@H](CCN)NC(=O)Nc2ccccc2Cl)C(C)O)CCNC(=O)[C@H](C(C)O)NC(=O)[C@H](CCN)NC(=O)[C@H](CCN)NC1=O (stereo partly drawn) [Example C2, CB-182, 804 sulphate salt, reference compound] ({NH(2-ClPh)-CO}-[Dab][Thr(3ξ)][Dab][Dab][Dab][dF]L[Dab][Dab][Thr(3ξ)]; lactam 4-C) | 0.5 micrograms/mL |

---

tested on: Klebsiella pneumoniae; assay: MIC, compound in combination with a second agent (broth microdilution); format: cell-based; conditions: 1:1 (wt:wt) combination with Rifampicin; MIC = total drug concentration; strain CCUG-59348
Counter-ions that a name gives are not always drawn. Bridge positions count the residues as written; N and C are the ends. Square brackets hold non-standard residues; d marks the D form. Peptide text beside a SMILES is read from it. * marks the point of attachment. ξ: configuration not given here. ξβ3hGly(cHex) = NC(CC(=O)*)C1CCCCC1; Thr(3ξ) = CC(O)[C@H](N)C(=O)O; Dab = NCC[C@H](N)C(=O)O; Inp = O=C(O)C1CCNCC1; X16 = CN(C)CCCC(=O)*; Ahp = NCCCCCCC(=O)O

| Compound | Unit abbrev | MIC K. pneumoniae CCUG-59348 |
| --- | --- | --- |
| CC(C)C[C@@H]1NC(=O)[C@@H](Cc2ccccc2)NC(=O)[C@H](CCN)NC(=O)[C@@H](NC(=O)[C@H](CCN)NC(=O)[C@@H](NC(=O)[C@H](CCN)NC(=O)C2CCNCC2)C(C)O)CCNC(=O)[C@H](C(C)O)NC(=O)[C@H](CCN)NC(=O)[C@H](CCN)NC1=O (stereo partly drawn) [Example 53, trifluoroacetate salt] (H-[Inp][Dab][Thr(3ξ)][Dab][Dab][Dab][dF]L[Dab][Dab][Thr(3ξ)]; lactam 5-C) | micrograms/mL | 4 |
| CC(C)C[C@@H]1NC(=O)[C@@H](Cc2ccccc2)NC(=O)[C@H](CCN)NC(=O)[C@@H](NC(=O)[C@H](CCN)NC(=O)[C@@H](NC(=O)CCCCCCN)C(C)O)CCNC(=O)[C@H](C(C)O)NC(=O)[C@H](CCN)NC(=O)[C@H](CCN)NC1=O (stereo partly drawn) [Example 13, 7-Aminoheptanoyl polymyxin B nonapeptide] (H-[Ahp][Thr(3ξ)][Dab][Dab][Dab][dF]L[Dab][Dab][Thr(3ξ)]; lactam 4-C) | micrograms/mL | 4 |
| CC(C)C[C@@H]1NC(=O)[C@@H](Cc2ccccc2)NC(=O)[C@H](CCN)NC(=O)[C@@H](NC(=O)[C@H](CCN)NC(=O)[C@@H](NC(=O)CCCN(C)C)C(C)O)CCNC(=O)[C@H](C(C)O)NC(=O)[C@H](CCN)NC(=O)[C@H](CCN)NC1=O (stereo partly drawn) [Example 11] (X16-[Thr(3ξ)][Dab][Dab][Dab][dF]L[Dab][Dab][Thr(3ξ)]; lactam 3-C) | micrograms/mL | 4 |
| CC(C)C[C@H]1NC(=O)[C@H](CCN)NC(=O)[C@@H](NC(=O)[C@H](CCN)NC(=O)[C@@H](NC(=O)CC(N)C2CCCCC2)C(C)O)CCNC(=O)[C@H](C(C)O)NC(=O)[C@H](CCN)NC(=O)[C@H](CCN)NC(=O)[C@H](C(C)O)NC1=O (stereo partly drawn) [Example 50] ({ξβ3hGly(cHex)}-[Thr(3ξ)][Dab][Dab][Dab][dL][Thr(3ξ)][Dab][Dab][Thr(3ξ)]; lactam 3-C) | micrograms/mL | 8 |
| CC(C)C[C@@H]1NC(=O)[C@@H](Cc2ccccc2)NC(=O)[C@H](CCN)NC(=O)[C@@H](NC(=O)[C@H](CCN)NC(=O)[C@@H](NC(=O)[C@H](CCN)NC(=O)CC(N)C2CCCCC2)C(C)O)CCNC(=O)[C@H](C(C)O)NC(=O)[C@H](CCN)NC(=O)[C@H](CCN)NC1=O (mixture of isomers) [Example 39, trifluoroacetate salt] | micrograms/mL | 1 |
| CC(C)C[C@@H]1NC(=O)[C@@H](Cc2ccccc2)NC(=O)[C@H](CCN)NC(=O)[C@@H](NC(=O)[C@H](CCN)NC(=O)[C@@H](NC(=O)CC(C)O)C(C)O)CCNC(=O)[C@H](C(C)O)NC(=O)[C@H](CCN)NC(=O)[C@H](CCN)NC1=O (mixture of isomers) | micrograms/mL | 16 |

---

tested on: Klebsiella pneumoniae; test: MIC, compound in combination with a second agent (broth microdilution); format: cell-based; conditions: 1:1 (wt:wt) combination with Rifampicin; MIC = total drug concentration; strain CCUG-59348
Counter-ions that a name gives are not always drawn. Numbered stars: 1 amine (or outer) side, 2 acyl side, 3 side chain; on linkers, the order of the positions; unused ones are H or OH. Bridge positions count the residues as written; N and C are the ends. Square brackets hold non-standard residues; d marks the D form. Peptide text beside a SMILES is read from it. * marks the point of attachment. ξ: configuration not given here. ξHexahydromandeloyl = O=C(C(O)C1CCCCC1)*; ξβ3hPhg = O=C(CC(N[*:1])c1ccccc1)[*:2]; ξβ3hGly(cHex) = NC(CC(=O)*)C1CCCCC1; Thr(3ξ) = CC(O)[C@H](N)C(=O)O; NH(2-ClPh) = Clc1ccccc1N*; Dab = NCC[C@H](N)C(=O)O; X23 = O=C(CCCN1CCOCC1)*; X14 = CC(C)(N)CCC(=O)*; X1 = CCCCCCC(O)C(=O)*; CO = O=C([*:1])[*:2]; X15 = O=C(C1CCNC1)*
MIC K. pneumoniae CCUG-59348 values, listed per item
Measured endpoint: MIC K. pneumoniae CCUG-59348 (micrograms/mL)

| Molecule | Measured endpoint | Value measured |
| --- | --- | --- |
| CC(C)C[C@@H]1NC(=O)[C@@H](Cc2ccccc2)NC(=O)[C@H](CCN)NC(=O)[C@@H](NC(=O)[C@H](CCN)NC(=O)[C@@H](NC(=O)[C@H](CCN)NC(=O)Nc2ccccc2Cl)C(C)O)CCNC(=O)[C@H](C(C)O)NC(=O)[C@H](CCN)NC(=O)[C@H](CCN)NC1=O (stereo partly drawn) [Example C2, CB-182, 804 sulphate salt, reference compound] ({NH(2-ClPh)-CO}-[Dab][Thr(3ξ)][Dab][Dab][Dab][dF]L[Dab][Dab][Thr(3ξ)]; lactam 4-C) | MIC K. pneumoniae CCUG-59348 | 2 |
| CCCCCCC(O)C(=O)N[C@H](C(=O)N[C@@H](CCN)C(=O)N[C@H]1CCNC(=O)[C@H](C(C)O)NC(=O)[C@H](CCN)NC(=O)[C@H](CCN)NC(=O)[C@H](CC(C)C)NC(=O)[C@@H](CC(C)C)NC(=O)[C@H](CCN)NC1=O)C(C)O (mixture of isomers) [Example 19] | MIC K. pneumoniae CCUG-59348 | 2 |
| CC(C)C[C@@H]1NC(=O)[C@@H](Cc2ccccc2)NC(=O)[C@H](CCN)NC(=O)[C@@H](NC(=O)[C@H](CCN)NC(=O)[C@@H](NC(=O)C2CCNC2)C(C)O)CCNC(=O)[C@H](C(C)O)NC(=O)[C@H](CCN)NC(=O)[C@H](CCN)NC1=O (stereo partly drawn) [Example 9] (X15-[Thr(3ξ)][Dab][Dab][Dab][dF]L[Dab][Dab][Thr(3ξ)]; lactam 3-C) | MIC K. pneumoniae CCUG-59348 | 8 |
| CC(C)C[C@@H]1NC(=O)[C@@H](Cc2ccccc2)NC(=O)[C@H](CCN)NC(=O)[C@@H](NC(=O)[C@H](CCN)NC(=O)[C@@H](NC(=O)CCC(C)(C)N)C(C)O)CCNC(=O)[C@H](C(C)O)NC(=O)[C@H](CCN)NC(=O)[C@H](CCN)NC1=O (stereo partly drawn) [Example 21] (X14-[Thr(3ξ)][Dab][Dab][Dab][dF]L[Dab][Dab][Thr(3ξ)]; lactam 3-C) | MIC K. pneumoniae CCUG-59348 | 8 |
| CCCCCCC(O)C(=O)N[C@H](C(=O)N[C@@H](CCN)C(=O)N[C@H]1CCNC(=O)[C@H]([C@@H](C)O)NC(=O)[C@H](CCN)NC(=O)[C@H](CCN)NC(=O)[C@H](CC(C)C)NC(=O)[C@@H](Cc2ccccc2)NC(=O)[C@H](CCN)NC1=O)[C@@H](C)O (stereo partly drawn) [Example 1] (X1-T[Dab][Dab][Dab][dF]L[Dab][Dab]T; lactam 3-C) | MIC K. pneumoniae CCUG-59348 | 2 |
| CC(C)C[C@@H]1NC(=O)[C@@H](Cc2ccccc2)NC(=O)[C@H](CCN)NC(=O)[C@@H](NC(=O)[C@H](CCN)NC(=O)[C@@H](NC(=O)CCCN2CCOCC2)C(C)O)CCNC(=O)[C@H](C(C)O)NC(=O)[C@H](CCN)NC(=O)[C@H](CCN)NC1=O (stereo partly drawn) [Example 14, trifluoroacetate salt] (X23-[Thr(3ξ)][Dab][Dab][Dab][dF]L[Dab][Dab][Thr(3ξ)]; lactam 3-C) | MIC K. pneumoniae CCUG-59348 | 16 |
| CC(C)C[C@@H]1NC(=O)[C@@H](Cc2ccccc2)NC(=O)[C@H](CCN)NC(=O)[C@@H](NC(=O)[C@H](CCN)NC(=O)[C@@H](NC(=O)CC(N)C2CCCCC2)C(C)O)CCNC(=O)[C@H](C(C)O)NC(=O)[C@H](CCN)NC(=O)[C@H](CCN)NC1=O (stereo partly drawn) [Example 10] ({ξβ3hGly(cHex)}-[Thr(3ξ)][Dab][Dab][Dab][dF]L[Dab][Dab][Thr(3ξ)]; lactam 3-C) | MIC K. pneumoniae CCUG-59348 | 1 |
| CC(C)C[C@@H]1NC(=O)[C@@H](Cc2ccccc2)NC(=O)[C@H](CCN)NC(=O)[C@@H](NC(=O)[C@@H](CO)NC(=O)[C@@H](NC(=O)C(O)C2CCCCC2)C(C)O)CCNC(=O)[C@H](C(C)O)NC(=O)[C@H](CCN)NC(=O)[C@H](CCN)NC1=O (stereo partly drawn) [Example 46, TFA salt] (ξHexahydromandeloyl-[Thr(3ξ)][dS][Dab][Dab][dF]L[Dab][Dab][Thr(3ξ)]; lactam 3-C) | MIC K. pneumoniae CCUG-59348 | 2 |
| CC(C)C[C@@H]1NC(=O)[C@@H](Cc2ccccc2)NC(=O)[C@H](CCN)NC(=O)[C@@H](NC(=O)[C@H](CCN)NC(=O)[C@@H](NC(=O)CC(N)c2ccccc2)C(C)O)CCNC(=O)[C@H](C(C)O)NC(=O)[C@H](CCN)NC(=O)[C@H](CCN)NC1=O (stereo partly drawn) [Example 28] (ξβ3hPhg-[Thr(3ξ)][Dab][Dab][Dab][dF]L[Dab][Dab][Thr(3ξ)]; lactam 3-C) | MIC K. pneumoniae CCUG-59348 | 2 |
